Origin of measurements: the supplement of paper PMC4466140

biological target: CaAbp1-D1; test: SPOT peptide array binding signal intensity (averaged, normalized) (arbitrary units (background-subtracted, floor 0; scale differs between SH3 domains)); higher = stronger binding of the SH3 domain to the peptide
# label = y if SPOT peptide array binding signal intensity >= 300 else n

Is reported SPOT peptide array binding signal intensity greater than or equal to 300 here: APPLPPTAPPPPSLP
n

Is reported SPOT peptide array binding signal intensity greater than or equal to 300 here: ATKSASPTLPTRRSR
y

Is reported SPOT peptide array binding signal intensity greater than or equal to 300 here: VRTRRRPPPPPIPST
n

Is reported SPOT peptide array binding signal intensity greater than or equal to 300 here: IPSRPAPKPPSSASA
n

Is reported SPOT peptide array binding signal intensity greater than or equal to 300 here: RKNRAPPQRPRFNRE
y

Is reported SPOT peptide array binding signal intensity greater than or equal to 300 here: TEVPIPRRPPPPQAA
n
